targetSystem: T1, EsCas13d, nuclease-dead (Eubacterium siraeum, UniProt B0MS50, R295A;H300A;R849A;H854A)
T1 sequence: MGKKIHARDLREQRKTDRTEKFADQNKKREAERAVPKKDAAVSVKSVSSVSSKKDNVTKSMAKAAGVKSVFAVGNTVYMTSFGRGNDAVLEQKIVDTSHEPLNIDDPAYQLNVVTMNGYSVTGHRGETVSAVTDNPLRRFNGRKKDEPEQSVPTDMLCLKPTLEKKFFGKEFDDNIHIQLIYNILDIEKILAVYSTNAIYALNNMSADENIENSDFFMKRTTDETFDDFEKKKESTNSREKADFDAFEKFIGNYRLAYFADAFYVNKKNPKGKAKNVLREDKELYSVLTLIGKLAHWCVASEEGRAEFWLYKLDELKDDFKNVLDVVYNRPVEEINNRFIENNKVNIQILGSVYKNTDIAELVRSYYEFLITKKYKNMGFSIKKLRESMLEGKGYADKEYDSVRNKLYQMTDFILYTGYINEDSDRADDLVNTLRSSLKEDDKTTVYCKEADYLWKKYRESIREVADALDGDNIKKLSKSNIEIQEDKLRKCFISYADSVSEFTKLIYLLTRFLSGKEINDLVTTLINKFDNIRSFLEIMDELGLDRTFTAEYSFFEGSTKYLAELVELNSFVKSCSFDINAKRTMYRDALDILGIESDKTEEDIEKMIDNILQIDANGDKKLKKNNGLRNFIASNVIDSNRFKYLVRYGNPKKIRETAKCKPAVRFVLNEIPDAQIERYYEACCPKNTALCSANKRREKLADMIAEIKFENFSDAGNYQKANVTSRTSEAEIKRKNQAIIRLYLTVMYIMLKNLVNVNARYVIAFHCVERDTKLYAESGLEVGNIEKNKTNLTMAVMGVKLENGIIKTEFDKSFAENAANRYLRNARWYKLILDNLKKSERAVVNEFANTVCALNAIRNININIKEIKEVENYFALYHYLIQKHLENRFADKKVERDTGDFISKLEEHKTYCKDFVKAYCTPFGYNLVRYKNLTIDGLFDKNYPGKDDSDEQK
measurementDescription: crRNA (strand 1, pre-loaded); Mg2+; 40 mM Tris-HCl pH 7.5, 150 mM NaCl, 6 mM MgCl2, 1 mM DTT, 0.1% Tween-20, 0.2 mg/ml BSA; 25 C; 10 min per concentration, then washed
condition: tags: His6-TwinStrep-SUMO cleaved; N-terminal SNAP kept (SNAP-Surface 488); label: 3' end held by stalled T7 RNA polymerase
In plain terms, low Kd, meaning strictly below 30 nM, gives 1, and everything else gives -1.

[[record]]
binder = "target 2 MT 5'PFS AAA 3'PFS CCU (mixed) RNA 1: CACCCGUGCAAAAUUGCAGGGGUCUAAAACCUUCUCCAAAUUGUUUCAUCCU RNA 2: GGGAAUGGAUCCACAUCUACGAAUUCAAAAGGAUGAAACAAUUUGGAGAAGCCUAGAUCGGAAGAGCACACGU"
classassignment = -1

[[record]]
binder = "target 1 del1,del8 (mixed) RNA 1: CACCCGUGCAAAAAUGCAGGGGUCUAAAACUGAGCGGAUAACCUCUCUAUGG RNA 2: GGGAAUGGAUCCACAUCUACGAAUUCGUACCAUAGAGAGGUUACCGCUCCCGAGAUCGGAAGAGCACACGU"
classassignment = 1

[[record]]
binder = "target 2 MT 5'PFS UGA 3'PFS CAG (mixed) RNA 1: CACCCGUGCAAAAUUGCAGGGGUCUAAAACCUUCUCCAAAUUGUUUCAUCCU RNA 2: GGGAAUGGAUCCACAUCUACGAAUUCUGAAGGAUGAAACAAUUUGGAGAAGCAGAGAUCGGAAGAGCACACGU"
classassignment = 1

[[record]]
binder = "target 1 insU 3' of 13,insG 3' of 2 (mixed) RNA 1: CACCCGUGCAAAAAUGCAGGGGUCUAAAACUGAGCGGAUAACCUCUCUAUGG RNA 2: GGGAAUGGAUCCACAUCUACGAAUUCGUACCAUAGAGAGUGUUAUCCGCUCGACCGAGAUCGGAAGAGCACACGU"
classassignment = 1

[[record]]
binder = "target 1 insG 3' of 22,insC 3' of 13 (mixed) RNA 1: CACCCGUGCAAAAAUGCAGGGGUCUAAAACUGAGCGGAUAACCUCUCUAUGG RNA 2: GGGAAUGGAUCCACAUCUACGAAUUCGUACGCAUAGAGAGCGUUAUCCGCUCACCGAGAUCGGAAGAGCACACGU"
classassignment = -1

[[record]]
binder = "target 1 del8,del16 (mixed) RNA 1: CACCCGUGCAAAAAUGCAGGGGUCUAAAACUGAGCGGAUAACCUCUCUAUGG RNA 2: GGGAAUGGAUCCACAUCUACGAAUUCGUACCAUAGGAGGUUACCGCUCACCGAGAUCGGAAGAGCACACGU"
classassignment = -1

[[record]]
binder = "target 2 MT 5'PFS ACU 3'PFS CUG (mixed) RNA 1: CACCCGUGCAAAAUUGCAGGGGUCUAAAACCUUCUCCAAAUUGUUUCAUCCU RNA 2: GGGAAUGGAUCCACAUCUACGAAUUCACUAGGAUGAAACAAUUUGGAGAAGCUGAGAUCGGAAGAGCACACGU"
classassignment = 1

[[record]]
binder = "target 1 C6A,C21U (mixed) RNA 1: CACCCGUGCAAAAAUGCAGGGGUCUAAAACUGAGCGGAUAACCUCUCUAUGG RNA 2: GGGAAUGGAUCCACAUCUACGAAUUCGUACUAUAGAGAGGUUAUCAGCUCACCGAGAUCGGAAGAGCACACGU"
classassignment = 1

[[record]]
binder = "target 1 insU 3' of 17,insC 3' of 17 (mixed) RNA 1: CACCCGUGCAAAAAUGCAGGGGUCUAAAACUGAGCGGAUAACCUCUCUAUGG RNA 2: GGGAAUGGAUCCACAUCUACGAAUUCGUACCAUAGUCAGAGGUUAUCCGCUCACCGAGAUCGGAAGAGCACACGU"
classassignment = -1

[[record]]
binder = "target 1 G5C,U10G (mixed) RNA 1: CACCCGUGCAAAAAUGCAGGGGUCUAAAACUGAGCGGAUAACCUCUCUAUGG RNA 2: GGGAAUGGAUCCACAUCUACGAAUUCGUACCAUAGAGAGGUGAUCCCCUCACCGAGAUCGGAAGAGCACACGU"
classassignment = 1

[[record]]
binder = "target 1 A1C,A18C (mixed) RNA 1: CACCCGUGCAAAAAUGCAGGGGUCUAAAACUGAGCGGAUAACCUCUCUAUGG RNA 2: GGGAAUGGAUCCACAUCUACGAAUUCGUACCAUCGAGAGGUUAUCCGCUCCCCGAGAUCGGAAGAGCACACGU"
classassignment = -1

[[record]]
binder = "target 2 MT 5'PFS AGA 3'PFS CCG (mixed) RNA 1: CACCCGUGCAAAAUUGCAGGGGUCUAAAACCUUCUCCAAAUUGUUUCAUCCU RNA 2: GGGAAUGGAUCCACAUCUACGAAUUCAGAAGGAUGAAACAAUUUGGAGAAGCCGAGAUCGGAAGAGCACACGU"
classassignment = 1

[[record]]
binder = "target 3 insA 3' of 22,insU 3' of 22 (mixed) RNA 1: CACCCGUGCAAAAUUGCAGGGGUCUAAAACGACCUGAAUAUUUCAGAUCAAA RNA 2: GGGAAUGGAUCCACAUCUACGAAUUCGUUUAUUUGAUCUGAAAUAUUCAGGUCUGCAGAUCGGAAGAGCACACGU"
classassignment = 1

[[record]]
binder = "target 1 insC 3' of 14,insG 3' of 7 (mixed) RNA 1: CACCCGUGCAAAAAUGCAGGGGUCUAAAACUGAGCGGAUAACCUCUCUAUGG RNA 2: GGGAAUGGAUCCACAUCUACGAAUUCGUACCAUAGAGACGGUUAUCGCGCUCACCGAGAUCGGAAGAGCACACGU"
classassignment = -1

[[record]]
binder = "target 1 insG 3' of 16,insC 3' of 5 (mixed) RNA 1: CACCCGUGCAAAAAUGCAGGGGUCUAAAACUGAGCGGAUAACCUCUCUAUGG RNA 2: GGGAAUGGAUCCACAUCUACGAAUUCGUACCAUAGAGGAGGUUAUCCGCCUCACCGAGAUCGGAAGAGCACACGU"
classassignment = -1

